Biological target: Protease (Human immunodeficiency virus 1)
Sequence (Q9YQ12 whole entry): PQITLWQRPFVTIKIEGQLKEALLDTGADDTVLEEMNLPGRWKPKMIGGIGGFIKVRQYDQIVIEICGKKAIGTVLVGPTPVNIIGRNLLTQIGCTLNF
Test: Inhibition of HIV1 recombinant protease
pIC50: −log10 of the molar value.
OBSERVED_PROPERTY: pIC50

[[record]]
compound = "O=C(NN1C(=O)[C@@H]2C3C=CC(C4CC43)[C@@H]2C1=O)c1ccc(Cn2cnc3ccccc32)cc1 (stereo partly specified)"
observed_property = "pIC50"
measured_result = "< 3.94"


----------
Test: Cytotoxicity against human CEMx174 5.25M7 cells after 4 days by XTT assay
Type: cell-based
Lab note: anything with CC50 at 96 h below 30 µM is marked 1 (yes); values at 30 µM or higher are marked 0 (no).

[[record]]
compound = "CCN(Cc1ccc(C(=O)NN2C(=O)[C@@H]3C4C=CC(C5CC54)[C@@H]3C2=O)cc1)c1ccccc1 (stereo partly specified)"
label = "0 (no)"

[[record]]
compound = "CN(CCCN1C(=O)C2C3C=CC(C4CC34)C2C1=O)Cc1ccccc1 (stereo unspecified)"
label = "0 (no)"

[[record]]
compound = "CC(C)CN(Cc1ccc(C(=O)NN2C(=O)[C@@H]3C4C=CC(C5CC54)[C@@H]3C2=O)cc1)c1ccccc1 (stereo partly specified)"
label = "0 (no)"

[[record]]
compound = "O=C(NN1C(=O)[C@@H]2C3C=CC(C4CC43)[C@@H]2C1=O)c1ccc(CN2CCN(c3ccncc3)C2=O)cc1 (stereo partly specified)"
label = "0 (no)"

[[record]]
compound = "O=C(NN1C(=O)[C@@H]2C3C=CC(C4CC43)[C@@H]2C1=O)c1ccc(Cn2cnc3ccccc32)cc1 (stereo partly specified)"
label = "0 (no)"

[[record]]
compound = "Cc1nnc(C(C)C)n1-c1ccc(C(=O)NN2C(=O)C3C4C=CC(C5CC45)C3C2=O)cc1 (stereo unspecified)"
label = "0 (no)"

[[record]]
compound = "Cc1cccc(C)c1C(=O)N1CCC(C(=O)NN2C(=O)C3C4C=CC(C5CC45)C3C2=O)CC1 (stereo unspecified)"
label = "0 (no)"

[[record]]
compound = "O=C(NN1C(=O)[C@@H]2C3C=CC(C4CC43)[C@@H]2C1=O)c1ccc(CN(Cc2ccccc2)c2ccccc2)cc1 (stereo partly specified)"
label = "1 (yes)"

[[record]]
compound = "Cc1nc2ccccc2n1Cc1ccc(C(=O)NN2C(=O)[C@@H]3C4C=CC(C5CC54)[C@@H]3C2=O)cc1 (stereo partly specified)"
label = "1 (yes)"

[[record]]
compound = "O=C(N[C@H](C(=O)NN1C(=O)C2C3C=CC(C4CC34)C2C1=O)c1ccccc1)c1ccccc1 (stereo partly specified)"
label = "0 (no)"

[[record]]
compound = "O=C1C2C3C=CC(C4CC34)C2C(=O)N1CCC(=O)n1cnc2ccccc21 (stereo unspecified)"
label = "0 (no)"

[[record]]
compound = "O=C(Nc1ccccc1)c1ccc(CN2C(=O)C3C4C=CC(C5CC45)C3C2=O)cc1 (stereo unspecified)"
label = "0 (no)"

[[record]]
compound = "Cc1ccc(-c2ccc3c(c2)C=C(C(=O)Nc2ccc(C[N+](C)(C)C4CCOCC4)cc2)CCC3)cc1.[Cl-]"
label = "1 (yes)"

[[record]]
compound = "O=C(NN1C(=O)[C@@H]2C3C=CC(C4CC43)[C@@H]2C1=O)c1ccc(CNc2cccc(Cl)c2)cc1 (stereo partly specified)"
label = "1 (yes)"

[[record]]
compound = "Cc1ccc(C)n1-c1ccc(C(=O)NN2C(=O)C3C4C=CC(C5CC45)C3C2=O)cc1 (stereo unspecified)"
label = "1 (yes)"

